tested on: Aulacophora femoralis; test: Test for Aulacophora femoralis (spray test); type: in vivo; settings: effective component concentration of 500 ppm; 2nd-instar, dipped cucumber leaves; after 7 days
measured-property: insecticidal ratio (%)

[
  {
    "compound": "CC(=O)Nc1cc(C2=NOC(c3cc(Cl)cc(Cl)c3)(C(F)(F)F)C2)ccc1-n1cncn1 (stereo not drawn) [Compound 106]",
    "assayed-system": "Aulacophora femoralis",
    "measured-property": "insecticidal ratio",
    "quantitative-readout": 100
  },
  {
    "compound": "N#Cc1cc(C2=NOC(c3cc(C(F)(F)F)cc(C(F)(F)F)c3)(C(F)(F)F)C2)ccc1-n1cncn1 (racemic) [Compound 135]",
    "assayed-system": "Aulacophora femoralis",
    "measured-property": "insecticidal ratio",
    "quantitative-readout": 100
  },
  {
    "compound": "O=[N+]([O-])c1cc(C2=NOC(c3cc(Cl)cc(Cl)c3)(C(F)(F)F)C2)ccc1-n1ccnn1 (stereo not drawn) [Compound 64]",
    "assayed-system": "Aulacophora femoralis",
    "measured-property": "insecticidal ratio",
    "quantitative-readout": 100
  },
  {
    "compound": "N#Cc1cc(C2=NOC(c3cccc(C(F)(F)F)c3)(C(F)(F)F)C2)ccc1-n1cncn1 (racemic) [Compound 126]",
    "assayed-system": "Aulacophora femoralis",
    "measured-property": "insecticidal ratio",
    "quantitative-readout": 100
  },
  {
    "compound": "O=[N+]([O-])c1cc(C2=NOC(c3cccc(C(F)(F)F)c3)(C(F)(F)F)C2)ccc1-n1cncn1 (racemic) [Compound 127]",
    "assayed-system": "Aulacophora femoralis",
    "measured-property": "insecticidal ratio",
    "quantitative-readout": 100
  },
  {
    "compound": "O=[N+]([O-])c1cc(C2=NOC(c3cccc(Cl)c3)(C(F)(F)F)C2)ccc1-n1cncn1 (racemic) [Compound 90]",
    "assayed-system": "Aulacophora femoralis",
    "measured-property": "insecticidal ratio",
    "quantitative-readout": 100
  },
  {
    "compound": "N#Cc1cc(C2=NOC(c3ccccc3)(C(F)(F)F)C2)ccc1-n1cncn1 (stereo not drawn) [Compound 80]",
    "assayed-system": "Aulacophora femoralis",
    "measured-property": "insecticidal ratio",
    "quantitative-readout": 100
  },
  {
    "compound": "N#Cc1cc(C2=NOC(c3cc(Cl)cc(Cl)c3)(C(F)(F)F)C2)ccc1-n1cc([N+](=O)[O-])cn1 (stereo not drawn) [Compound 21]",
    "assayed-system": "Aulacophora femoralis",
    "measured-property": "insecticidal ratio",
    "quantitative-readout": 100
  },
  {
    "compound": "N#Cc1cc(C2=NOC(c3cc(C(F)(F)F)cc(C(F)(F)F)c3)(C(F)(F)F)C2)ccc1-n1cnnn1 (stereo not drawn) [Compound 165]",
    "assayed-system": "Aulacophora femoralis",
    "measured-property": "insecticidal ratio",
    "quantitative-readout": 100
  },
  {
    "compound": "COC(=O)Nc1cc(C2=NOC(c3cc(Cl)cc(Cl)c3)(C(F)(F)F)C2)ccc1-n1cncn1 (racemic) [Compound 109]",
    "assayed-system": "Aulacophora femoralis",
    "measured-property": "insecticidal ratio",
    "quantitative-readout": 100
  },
  {
    "compound": "N#Cc1cc(C2=NOC(c3cc(Cl)cc(Cl)c3)(C(F)(F)F)C2)ccc1-n1cncn1 (stereo not drawn) [Compound 101]",
    "assayed-system": "Aulacophora femoralis",
    "measured-property": "insecticidal ratio",
    "quantitative-readout": 100
  },
  {
    "compound": "FC(F)(F)C1(c2cc(Cl)cc(Cl)c2)CC(c2ccc(-n3cnnn3)cc2)=NO1 (stereo not drawn) [Compound 148]",
    "assayed-system": "Aulacophora femoralis",
    "measured-property": "insecticidal ratio",
    "quantitative-readout": 100
  },
  {
    "compound": "FC(F)(F)C1(c2cc(Cl)cc(Cl)c2)CC(c2ccc(-n3cnnn3)c(Cl)c2)=NO1 (racemic) [Compound 150]",
    "assayed-system": "Aulacophora femoralis",
    "measured-property": "insecticidal ratio",
    "quantitative-readout": 100
  },
  {
    "compound": "O=[N+]([O-])c1cc(C2=NOC(c3cc(C(F)(F)F)cc(C(F)(F)F)c3)(C(F)(F)F)C2)ccc1-n1cnnn1 (stereo not drawn) [Compound 166]",
    "assayed-system": "Aulacophora femoralis",
    "measured-property": "insecticidal ratio",
    "quantitative-readout": 100
  },
  {
    "compound": "N#Cc1cc(C2=NOC(c3cccc(Cl)c3)(C(F)(F)F)C2)ccc1-n1cncn1 (stereo not drawn) [Compound 89]",
    "assayed-system": "Aulacophora femoralis",
    "measured-property": "insecticidal ratio",
    "quantitative-readout": 100
  },
  {
    "compound": "N#Cc1cc(C2=NOC(c3cc(Cl)cc(Cl)c3)(C(F)(F)F)C2)ccc1-n1cc(N)cn1 (stereo not drawn) [Compound 181]",
    "assayed-system": "Aulacophora femoralis",
    "measured-property": "insecticidal ratio",
    "quantitative-readout": 100
  },
  {
    "compound": "FC(F)(F)c1cccc(C2(C(F)(F)F)CC(c3ccc(-n4cnnn4)cc3)=NO2)c1 (stereo not drawn) [Compound 157]",
    "assayed-system": "Aulacophora femoralis",
    "measured-property": "insecticidal ratio",
    "quantitative-readout": 100
  },
  {
    "compound": "FC(F)(F)C1(c2cc(Cl)cc(Cl)c2)CC(c2ccc(-n3cnnn3)c(Br)c2)=NO1 (stereo not drawn) [Compound 151]",
    "assayed-system": "Aulacophora femoralis",
    "measured-property": "insecticidal ratio",
    "quantitative-readout": 100
  },
  {
    "compound": "FC(F)(F)C1(c2cccc(Cl)c2)CC(c2ccc(-n3cncn3)cc2)=NO1 (stereo not drawn) [Compound 86]",
    "assayed-system": "Aulacophora femoralis",
    "measured-property": "insecticidal ratio",
    "quantitative-readout": 100
  },
  {
    "compound": "O=[N+]([O-])c1cc(C2=NOC(c3cc(Cl)cc(Cl)c3)(C(F)(F)F)C2)ccc1-n1cncn1 (stereo not drawn) [Compound 104]",
    "assayed-system": "Aulacophora femoralis",
    "measured-property": "insecticidal ratio",
    "quantitative-readout": 100
  },
  {
    "compound": "O=[N+]([O-])c1cc(C2=NOC(c3cc(Cl)cc(Cl)c3)(C(F)(F)F)C2)ccc1-n1cnnn1 (stereo not drawn) [Compound 154]",
    "assayed-system": "Aulacophora femoralis",
    "measured-property": "insecticidal ratio",
    "quantitative-readout": 100
  }
]
